Sourced from patent US10934258B2

# Procedure Text: RDE linear sweep voltammetry with Levich and Tafel analysis
# Format: physicochemical
# Condition: 1.0 mM in 0.5 M NaCl, Levich
# Protocol: Electrochemical RDE studies: All linear sweep voltammetry (LSV) studies were conducted using a Gamry 1000E potentiostat in a three-electrode configuration, a glassy carbon disk working electrode (5 mm Teflon encased glassy carbon disk, Pine Research Instrumentation) along with a glassy carbon counter electrode and a Ag/AgCl reference electrode same as used in CV studies. […] LSV scans were recorded at a rate of 5 mV/s from 0.3 V to 0.8 V vs NHE. […]
Experimental Endpoint: diffusion constant, D, second reduction

Consider the reported diffusion constant, D, second reduction for these compounds:
- Compound: "C[N+](C)(C)CCC[n+]1ccc(-c2cc[n+](CCCS(=O)(=O)[O-])cc2)cc1.[Br-].[Br-] [(NPr)(SPr)V]"
  diffusion constant, D, second reduction: "5.04 × 10^−6 cm^2/s"
- Compound: "C[n+]1ccc(-c2cc[n+](CCC[N+](C)(C)C)cc2)cc1.[Cl-].[Cl-].[Cl-]"
  diffusion constant, D, second reduction: "5.29 × 10^−6 cm^2/s"

Kindly give each listed record's diffusion constant, D, second reduction.
1. O=S(=O)([O-])CCC[n+]1ccc(-c2cc[n+](CCCS(=O)(=O)[O-])cc2)cc1 [(SPr)2V]
2. C[N+](C)(C)CCC[n+]1ccc(-c2cc[n+](CCC[N+](C)(C)C)cc2)cc1.[Br-].[Br-].[Br-].[Br-]

Found:
1. 2.81 × 10^−6 cm^2/s
2. 3.84×10^−6 cm^2/s

---

# Procedure Text: RDE linear sweep voltammetry with Levich and Tafel analysis
# Assay type: physicochemical
# Condition: 1.0 mM in 0.5 M NaCl, Levich
# Experimental: Electrochemical RDE studies: All linear sweep voltammetry (LSV) studies were conducted using a Gamry 1000E potentiostat in a three-electrode configuration, a glassy carbon disk working electrode (5 mm Teflon encased glassy carbon disk, Pine Research Instrumentation) along with a glassy carbon counter electrode and a Ag/AgCl reference electrode same as used in CV studies. […] LSV scans were recorded at a rate of 5 mV/s from 0.3 V to 0.8 V vs NHE. […]
Assign diffusion constant, D, first reduction to each entry below.

- Molecule: "O=S(=O)([O-])CCC[n+]1ccc(-c2cc[n+](CCCS(=O)(=O)[O-])cc2)cc1 [(SPr)2V]"
  diffusion constant, D, first reduction: "3.26×10^−6 cm^2/s"

Kindly give each listed record's diffusion constant, D, first reduction.
1. C[n+]1ccc(-c2cc[n+](C)cc2)cc1 [MV, methyl viologen, reference compound]
2. C[N+](C)(C)CCC[n+]1ccc(-c2cc[n+](CCCS(=O)(=O)[O-])cc2)cc1.[Br-].[Br-] [(NPr)(SPr)V]
3. C[N+](C)(C)CCC[n+]1ccc(-c2cc[n+](CCC[N+](C)(C)C)cc2)cc1.[Br-].[Br-].[Br-].[Br-]
4. C[n+]1ccc(-c2cc[n+](CCC[N+](C)(C)C)cc2)cc1.[Cl-].[Cl-].[Cl-]

Found:
1: 2.57 × 10^−5 cm^2/s; 2: 4.96 × 10^−6 cm^2/s; 3: 3.88×10^−6 cm^2/s; 4: 5.40 × 10^−6 cm^2/s

---

Assign redox potential (redox wave in cyclic voltammogram) to each entry below.
# Procedure Text: Cyclic and square wave voltammetry (redox potentials)
# Type: physicochemical
# Condition: 4 mM in 0.5 M NaCl
Answers are plain numbers, in V vs NHE.

Consider the reported redox potential (redox wave in cyclic voltammogram) for these molecules:
- Molecule: "[Br-].[Br-].[Zn+2] [ZnBr2, reference compound]"
  Experimental Result: "−1.2"
- Molecule: "C[N+](C)(C)C[c-]1cccc1.[Cl-].[Fe+2].c1cc[cH-]c1"
  Experimental Result: 0.60
- Molecule: "CC[N+](C)(C)C[c-]1cccc1.[Br-].[Fe+2].c1cc[cH-]c1 [[FcN^Et]Br]"
  Experimental Result: 0.60

Attention now turns to another entry.
Lookup: Need redox potential (redox wave in cyclic voltammogram) of CC(C[N+](C)(C)C[c-]1cccc1)[N+](C)(C)C.[Br-].[Br-].[Fe+2].c1cc[cH-]c1 (stereo not shown) , thanks.
Found: 0.62

---

# Procedure Text: Solubility by preparing a super-saturated solution
# Condition: in H2O
Assign solubility in H2O to each entry below.
Answers are plain numbers, in mM.

Consider the reported solubility in H2O for these compounds:
- Compound: "C[n+]1ccc(-c2cc[n+](CCC[N+](C)(C)C)cc2)cc1.[Cl-].[Cl-].[Cl-]"
  Experimental Endpoint: "solubility in H2O"
  Experimental Result: 1800
- Compound: "CC1(C)CC([N+](C)(C)C)CC(C)(C)N1[O].[Cl-]"
  Experimental Endpoint: "solubility in H2O"
  Experimental Result: 2500
- Compound: "C[N+](C)(C)CCC[n+]1ccc(-c2cc[n+](CCCS(=O)(=O)[O-])cc2)cc1.[Br-].[Br-] [(NPr)(SPr)V]"
  Experimental Endpoint: "solubility in H2O"
  Experimental Result: 1600

Lookup: Need solubility in H2O of `C[N+](C)(C)CCC[n+]1ccc(-c2cc[n+](CCC[N+](C)(C)C)cc2)cc1.[Br-].[Br-].[Br-].[Br-]` , thanks.
Found: 1600

---

# Procedure Text: Cyclic and square wave voltammetry (redox potentials)
# Type: physicochemical
# Condition: first redox couple; 4 mM in 0.5 M NaCl
Label not fulfilled if Exp. E1/2, first reduction falls below -0.4 V vs. NHE; label fulfilled in every other case.

Study these solved cases before continuing.
- Molecule: "O=S(=O)([O-])CCC[n+]1ccc(-c2cc[n+](CCCS(=O)(=O)[O-])cc2)cc1 [(SPr)2V]"
  Class Label: "not fulfilled"
- Molecule: "C[N+](C)(C)CCC[n+]1ccc(-c2cc[n+](CCCS(=O)(=O)[O-])cc2)cc1.[Br-].[Br-] [(NPr)(SPr)V]"
  Class Label: "fulfilled"
- Molecule: "C[n+]1ccc(-c2cc[n+](C)cc2)cc1 [MV, methyl viologen, reference compound]"
  Class Label: "not fulfilled"

Lookup: Form field: Exp. E1/2, first reduction at least -0.4 V vs. NHE? Entry: C[N+](C)(C)CCC[n+]1ccc(-c2cc[n+](CCC[N+](C)(C)C)cc2)cc1.[Br-].[Br-].[Br-].[Br-] [(NPr)2V]
Found: fulfilled

---

# Procedure Text: physchem
# Condition: saline or isotonic, thermodynamic from solid
Experimental Endpoint: solubility (mM)
Numbers only, in mM.

Lookup: Need solubility of O=S(=O)([O-])CCC[n+]1ccc(-c2cc[n+](CCCS(=O)(=O)[O-])cc2)cc1 [(SPr)2V] , thanks.
Found: 1700

---

# Procedure Text: Cyclic and square wave voltammetry (redox potentials)
# Assay type: physicochemical
# Condition: second redox couple; 4 mM in 0.5 M NaCl
Assign Exp. E1/2, second reduction to each entry below.
Give bare numbers, in V vs. NHE.

- Molecule: "C[n+]1ccc(-c2cc[n+](CCC[N+](C)(C)C)cc2)cc1.[Cl-].[Cl-].[Cl-] [(Me)(NPr)V]"
  Exp. E1/2, second reduction, V vs. NHE: "−0.78"

Kindly give each listed record's Exp. E1/2, second reduction.
1. O=S(=O)([O-])CCC[n+]1ccc(-c2cc[n+](CCCS(=O)(=O)[O-])cc2)cc1 [(SPr)2V]
2. C[N+](C)(C)CCC[n+]1ccc(-c2cc[n+](CCC[N+](C)(C)C)cc2)cc1.[Br-].[Br-].[Br-].[Br-] [(NPr)2V]
3. C[N+](C)(C)CCC[n+]1ccc(-c2cc[n+](CCCS(=O)(=O)[O-])cc2)cc1.[Br-].[Br-] [(NPr)(SPr)V]
4. C[n+]1ccc(-c2cc[n+](C)cc2)cc1 [MV, methyl viologen, reference compound]

Found:
["−0.79", "−0.72", "−0.74", "−0.76"]

---

Assign solubility to each entry below.
# Procedure Text: Solubility by preparing a super-saturated solution
# Condition: water, thermodynamic from solid
Numbers only, in mM.

Consider the reported solubility for these molecules:
- Molecule: "CC[N+](C)(C)C[c-]1cccc1.[Br-].[Fe+2].c1cc[cH-]c1 [[FcN^Et]Br]"
  Experimental Result: 3750
- Molecule: "CC1(C)CC([N+](C)(C)CCC[N+](C)(C)C)CC(C)(C)N1O [4-N^NPr-TEMPO]"
  Experimental Result: 2300

Attention now turns to another entry.
Lookup: Need solubility of O=S(=O)([O-])CCC[n+]1ccc(-c2cc[n+](CCCS(=O)(=O)[O-])cc2)cc1 [(SPr)2V] , thanks.
Found: 2000
